# Test system: cell line HeLa (cervix carcinoma, human)
# method summary: MTT cytotoxicity test, HeLa cells
# assay context: 48 h, read-out: HeLa IC50 after 48h
Kindly supply the reported IC50 values for the records listed here.
Note: state the figure and append the unit.

Problem: Retrieve IC50 on cell line HeLa (cervix carcinoma, human); query COc1cc(OC)c2c(c1)C(=O)CC2c1ccc(Br)cc1 (centres unmarked)
Result: 60 µM

Problem: For cell line HeLa (cervix carcinoma, human), give the measured IC50 of the entry COP(=O)(OC)C1C(=O)c2cc3c(cc2C1c1ccccc1)OCO3 (centres unmarked)
Result: 90 µM

FYI, the data here is from patent EP3072511A1.
